Tested on: Calf thymus DNA
assay_overview: Binding affinity to calf thymus DNA assessed as ratio of final absorbance area to absorbance of compound at 100 uM after 24 hrs by UV spectrophotometer analysis
Type: nucleic-acid assay
experimental_setup: Bos taurus
// Ratio lookup, one value per entry
outcome_measure: Ratio

- Cc1cc2c(cc1F)[n+]([O-])c1ccc(O)cc1[n+]2[O-]: 0.83
- Nc1ccc2c(c1)[n+]([O-])c1cc(F)ccc1[n+]2[O-]: 0.88
- [O-][n+]1c2ccc(O)cc2[n+]([O-])c2cc(Cl)c(Cl)cc21: 0.96
- CC[n+]1c(-c2ccccc2)c2cc(N)ccc2c2ccc(N)cc21: 0.5
- [O-][n+]1c2ccc(Br)cc2[n+]([O-])c2cc(OCc3ccccc3)ccc21: 0.88
